Taken from a protein production outcome set (Wang et al. 2014).

Test: label from the status in PepcDB records
quantity: protein production

- DRVLVPVANPNTEDNLLQLAIILTKSASGTLLPLHILLEENNPISPDAKAKQSQLLSTAEMIAHAAVVNVTPIGRIDESIDKGIARVAEEKQASAIICGWKGYSTYEENLFGGVIDKIVQRSFIPVLVSR: failed
- MEFCPKCKSLMIYQGDKLVCRKCGYEKEADDSEELVIKVERNKEDVPVIEGENLKTLPTTKAICPACGHNEAFWWLRQLRAADESEVRFFRCTKCGKTWREYD: failed
- MRLISKPVLCNYYVTYRCNATCGFCDIWEKPSPYVTPEAVEQNMRDLKKLGVKVIDFTGGEPLLHREMDTLLRIAKKYGMITTLTTNALLYPKWAERLKGLIDMLHFSLDSPDKAEHDTLRGVACFDFVLESIEKAKALG: failed
